All figures here come from patent US20100099561A1.

- System: blackgrass (Alopecurus myosuroides)
- test.description: Test B preemergence, blackgrass
- Type: in vivo
- test.settings: 16 g ai/ha, scale 0 to 100
experimental.endpoint: Plant response rating, Blackgrass
Please reply with the value in numeric form only.

CC1(C)CC(S(=O)(=O)Cc2c(C(F)(F)C(F)(F)F)nc3n(c2=O)CCC3)=NO1 ... 0
CC1(C)CC(S(=O)(=O)Cc2c(C(F)(F)F)nc3n(c2=O)CCCC3)=NO1 ... 0
CC1(C)CC(S(=O)(=O)Cc2c(C(F)(F)C(F)(F)F)nc3n(c2=O)CCCC3)=NO1 ... 40

The compound CC1(C)CC(S(=O)(=O)Cc2c(C(F)(F)F)nc3n(c2=O)CCC3)=NO1 showed Plant response rating, Blackgrass equal to 0

###

Catalogue of Plant response rating, Barnyardgrass readings, one per entry.
- Test system: barnyardgrass (Echinochloa crus-galli)
- test.description: Test A preemergence, barnyardgrass
- Format: in vivo
- test.settings: 500 g ai/ha, 0 to 100 scale (0 no effect, 100 complete control)

CC1(C)CC(S(=O)(=O)Cc2c(C(F)(F)F)nc3n(c2=O)CCCCC3)=NO1 ... 90
CC1(C)CC([S+]([O-])Cc2c(C(F)(F)C(F)(F)F)nc3n(c2=O)CCCS3)=NO1 (centres unmarked) ... 60
CCn1c(=O)c(CS(=O)(=O)C2=NOC(C)(C)C2)nc2ccccc21 ... 10
CC1(C)CC([S+]([O-])Cc2c(C(F)(F)F)nc3n(c2=O)CCS3)=NO1 (centres unmarked) ... 70
CC1(C)CC(S(=O)(=O)Cc2c(C(F)(F)F)nc3n(c2=O)CCO3)=NO1 ... 90

Quick note, Plant response rating, Barnyardgrass for Cc1cc2nc(C(F)(F)F)c(C[S+]([O-])C3=NOC(C)(C)C3)c(=O)n2o1 (centres unmarked) landed at 70

Value of Plant response rating, Barnyardgrass reported for the compound CC1(C)CC(S(=O)(=O)Cc2c(C(F)(F)C(F)(F)F)nc3n(c2=O)CCC3)=NO1 is 90

Lab note: Cn1c(=O)c(C[S+]([O-])C2=NOC(C)(C)C2)nc2ccccc21 (centres unmarked) gave Plant response rating, Barnyardgrass of 0

###

- System: kochia (Kochia scoparia)
- test.description: Test B preemergence, kochia
- Type: in vivo
- test.settings: 62 g ai/ha, scale 0 to 100
- Source text: […]
Listed below: Plant response rating, Kochia values for each entry.
Hey, just send me the number, nothing else.

// known answers, use as guide
CC1(C)CC(S(=O)(=O)Cc2c(C(F)(F)F)nc3ccsn3c2=O)=NO1 ... 0
CC1(C)CC(S(=O)(=O)Cc2c(C(F)(F)Cl)nc3n(c2=O)CCC3)=NO1 ... 55
CC1(C)CC(S(=O)(=O)Cc2c(C(F)(F)C(F)(F)F)nc3n(c2=O)CCC3)=NO1 ... 0

Entry CC1(C)CC(S(=O)(=O)Cc2c(C(F)(F)F)nc3n(c2=O)CCO3)=NO1 , Plant response rating, Kochia reported as 70

Measured Plant response rating, Kochia of CC1(C)CC(S(=O)(=O)Cc2c(C(F)(F)C(F)(F)F)nc3n(c2=O)CCCC3)=NO1 : 60

###

# Lookup of reported Plant response rating, Crabgrass, Large keyed by entry
- System: large crabgrass (Digitaria sanguinalis)
- test.description: Test A postemergence, large crabgrass
- Format: in vivo
- test.settings: 500 g ai/ha, 0 to 100 scale (0 no effect, 100 complete control)
Form field (numeric): enter value without unit.

Completed entries (count: 3):
Cc1con2c(=O)c(C[S+]([O-])C3=NOC(C)(C)C3)c(C(F)(F)F)nc12 (stereo not shown) [Compound 47] ... 60
CCn1c(=O)c(C[S+]([O-])C2=NOC(C)(C)C2)nc2ccccc21 (stereo not shown) [Compound 29] ... 0
CC1(C)CC(S(=O)(=O)Cc2c(C(F)(F)F)nc3n(c2=O)CCCO3)=NO1 [Compound 4] ... 80

Pending compound:
Field Plant response rating, Crabgrass, Large (large crabgrass (Digitaria sanguinalis)), entry CC1(C)CC(S(=O)(=O)Cc2c(C(F)(F)C(F)(F)F)nc3n(c2=O)CCCC3)=NO1 [Compound 21] : 80

###

# reported Plant response rating, Foxtail, Giant; entries follow
- Tested on: giant foxtail (Setaria faberii)
- test.description: Test B preemergence, giant foxtail
- Assay type: in vivo
- test.settings: 125 g ai/ha, scale 0 to 100

CC1(C)CC(S(=O)(=O)Cc2c(C(F)(F)Cl)nc3n(c2=O)CCC3)=NO1 [Compound 18] ... 98
CC1(C)CC(S(=O)(=O)Cc2c(C(F)(F)F)nc3n(c2=O)CCCC3)=NO1 [Compound 8] ... 100
CC1(C)CC(S(=O)(=O)Cc2c(C(F)(F)F)nc3n(c2=O)CCC3)=NO1 [Compound 11] ... 100
CC1(C)CC(S(=O)(=O)Cc2c(C(F)(F)F)nc3ccsn3c2=O)=NO1 [Compound 16] ... 98
CC1(C)CC(S(=O)(=O)Cc2c(C(F)(F)F)nc3n(c2=O)CCS3)=NO1 [Compound 6] ... 100
CC1(C)CC(S(=O)(=O)Cc2c(C(F)(F)C(F)(F)F)nc3n(c2=O)CCC3)=NO1 [Compound 22] ... 100

Proceeding to the next molecule to report its Plant response rating, Foxtail, Giant.
Plant response rating, Foxtail, Giant in this record for CC1(C)CC(S(=O)(=O)Cc2c(C(F)(F)C(F)(F)F)nc3n(c2=O)CCCC3)=NO1 [Compound 21] : 85

###

- System: johnsongrass (Sorghum halepense)
- test.description: Test B preemergence, johnsongrass
- Format: in vivo
- test.settings: 125 g ai/ha, scale 0 to 100
- Text: […]
// reported Plant response rating, Johnsongrass for each item listed

Check out these entries, answers already filled in.
CC1(C)CC(S(=O)(=O)Cc2c(C(F)(F)F)nc3n(c2=O)CCCC3)=NO1 ... 100
CC1(C)CC(S(=O)(=O)Cc2c(C(F)(F)C(F)(F)F)nc3n(c2=O)CCCC3)=NO1 ... 98

Switching to the query record.
Per the records, this compound ( CC1(C)CC(S(=O)(=O)Cc2c(C(F)(F)F)nc3ccsn3c2=O)=NO1 ) has Plant response rating, Johnsongrass equal to 95

###

Catalogue of Plant response rating, Ryegrass, Italian values
- Tested on: Italian ryegrass (Lolium multiflorum)
- test.description: Test B preemergence, Italian ryegrass
- Assay type: in vivo
- test.settings: Preemergence, 31 g ai/ha; scale 0 to 100

// known answers, use as guide
CC1(C)CC(S(=O)(=O)Cc2c(C(F)(F)F)nc3ccsn3c2=O)=NO1 [Compound 16] ... 0
CC1(C)CC(S(=O)(=O)Cc2c(C(F)(F)C(F)(F)F)nc3n(c2=O)CCCC3)=NO1 [Compound 21] ... 0
CC1(C)CC(S(=O)(=O)Cc2c(C(F)(F)C(F)(F)F)nc3n(c2=O)CCC3)=NO1 [Compound 22] ... 30
CC1(C)CC(S(=O)(=O)Cc2c(C(F)(F)F)nc3n(c2=O)CCS3)=NO1 [Compound 6] ... 15
CC1(C)CC(S(=O)(=O)Cc2c(C(F)(F)F)nc3n(c2=O)CCC3)=NO1 [Compound 11] ... 0
CC1(C)CC(S(=O)(=O)Cc2c(C(F)(F)F)nc3n(c2=O)CCCC3)=NO1 [Compound 8] ... 30
CC1(C)CC(S(=O)(=O)Cc2c(C(F)(F)Cl)nc3n(c2=O)CCC3)=NO1 [Compound 18] ... 0

The reported Plant response rating, Ryegrass, Italian of the compound CC1(C)CC(S(=O)(=O)Cc2c(C(F)(F)F)nc3n(c2=O)CCO3)=NO1 [Compound 2] was 0

###

The entries below are paired with their reported Plant response rating, Crabgrass, Large.
- Test system: large crabgrass (Digitaria sanguinalis)
- test.description: Test A preemergence, large crabgrass
- Type: in vivo
- test.settings: 125 g ai/ha, 0 to 100 scale (0 no effect, 100 complete control)
Reply with just the number.

Example cases with answers are listed next.
CC1(C)CC([S+]([O-])Cc2c(C(F)(F)Cl)nc3n(c2=O)CCCC3)=NO1 (centres unmarked) ... 50
CC1(C)CC([S+]([O-])Cc2c(C(F)(F)F)nc3n(c2=O)CCCO3)=NO1 (centres unmarked) ... 50

Data point: CC1(C)CC([S+]([O-])Cc2c(C(F)(F)F)nc3n(c2=O)CCC3)=NO1 (centres unmarked) ; Plant response rating, Crabgrass, Large = 0

The reported value for CC1(C)CC([S+]([O-])Cc2c(C(F)(F)F)nc3n(c2=O)CCCCC3)=NO1 (centres unmarked) in terms of Plant response rating, Crabgrass, Large is 0

GET /value?item= CC1(C)CC(S(=O)(=O)Cc2c(C(F)(F)F)nc3ccsn3c2=O)=NO1 &field=Plant response rating, Crabgrass, Large returns 90

###

- Tested on: nightshade (eastern black nightshade, Solanum ptycanthum)
- test.description: Test B preemergence, nightshade
- Assay type: in vivo
- test.settings: 62 g ai/ha, scale 0 to 100
Collected Plant response rating, Nightshade values appear next to each entry.
Please give only the number in your answer, with no unit.

Example compounds with recorded Plant response rating, Nightshade:
CC1(C)CC(S(=O)(=O)Cc2c(C(F)(F)F)nc3ccsn3c2=O)=NO1 ... 85
CC1(C)CC(S(=O)(=O)Cc2c(C(F)(F)Cl)nc3n(c2=O)CCC3)=NO1 ... 0
CC1(C)CC(S(=O)(=O)Cc2c(C(F)(F)C(F)(F)F)nc3n(c2=O)CCCC3)=NO1 ... 75

Please turn your attention to the following entry.
The recorded Plant response rating, Nightshade for CC1(C)CC(S(=O)(=O)Cc2c(C(F)(F)C(F)(F)F)nc3n(c2=O)CCC3)=NO1 is 90
